Residues, ends and D or L forms follow the SMILES beside them. *: point of attachment. Boc = CC(C)(C)OC(=O)*; OBn = c1ccc(CO*)cc1; Bn = c1ccc(C*)cc1
measured-parameter: melting point

molecule	melting point
CC(NC(=O)C(Cc1ccc(OCc2ccccc2)cc1)NC(=O)OC(C)(C)C)C(=O)NCC(=O)OCc1ccccc1 (stereo not drawn) (Boc-Tyr(Bn)-Ala-Gly-OBn; configuration not given here)	145 to 147 °C

Proceed to the following item.
Q. Any idea what melting point was measured for "COc1nc(NC(=O)NS(=O)(=O)c2cccc3c2OS(=O)(=O)C(C)=C3)c(Cl)c(OC)n1" ?
A. 236 to 237 °C
